- Procedure summary: NCI Yeast Anticancer Drug Screen. Data for the mlh1 rad18 strain (AID 175)
- Conditions used: S. cerevisiae mlh1 rad18 strain growth inhibition; at 50.0 µM; hits give high values
The panel holds about 79,000 compounds, 15% with a hit somewhere; the sample as a whole holds those more often. The source made the active and inactive calls. Rule as the data show it: active = growth inhibition above about 70%; inactive = the rest.
// reported growth inhibition for each item listed
Property: growth inhibition

compound=O=c1oc2ccc(Cl)cc2n1CN1CCOCC1 reported_value="5.55% (inactive)"
compound=O=C1CSC(=S)N1/N=C/c1ccc([N+](=O)[O-])s1 reported_value="98.8% (active)"
compound="COC(=O)/C(C#N)=C1\\CCC(OC)N1 (configuration not stated)" reported_value="-24.9% (inactive)"
compound=CC(C)(C)c1onc2c1C(=O)c1ccccc1-2 reported_value="-2.75% (inactive)"
compound=S=c1cn[nH]c2ccccc12 reported_value="37.6% (inactive)"
compound=CCOC(=O)c1ccc(NC(NC(=O)CC)(C(F)(F)F)C(F)(F)F)cc1 reported_value="-54% (inactive)"
compound="C=CCOc1cc2c(cc1C(C)c1ccc(OCC)cc1)OCO2 (configuration not stated)" reported_value="-32.3% (inactive)"
compound="NC(CC1C(=O)Nc2ccccc21)C(=O)O (configuration not stated)" reported_value="-8.9% (inactive)"
compound=C/C(N)=N/C(=O)OCCOC(=O)/N=C(\C)N reported_value="1.9% (inactive)"
compound=O=C1c2ccccc2C(=O)c2c1cccc2S(=O)(=O)Nc1ccccc1 reported_value="-3.6% (inactive)"
compound=C[n+]1cn(C2=C([O-])c3ccccc3C(=O)/C2=N\S(=O)(=O)c2ccccc2)c2ccccc21 reported_value="-28.9% (inactive)"
compound=O=C(N/N=C/c1ccc(Cl)cc1Cl)c1ccccc1SSc1ccccc1C(=O)N/N=C/c1ccc(Cl)cc1Cl reported_value="19.8% (inactive)"
compound="O=C1C2C3C=CC(C2C(=O)N1CCl)C1C2C(=O)N(CCl)C(=O)C2C31 (configuration not stated)" reported_value="18.7% (inactive)"
compound=CCOC(=O)Cc1cc(=O)oc2cc(O)ccc12 reported_value="-1.1% (inactive)"
compound=C#CCNCCCn1c(=O)nc2n(-c3ccccc3)c3ccccc3nc-2c1=O reported_value="43% (inactive)"
compound=CC(=O)NNC(=O)c1ccc(Br)cc1 reported_value="-1.05% (inactive)"
compound=NCCn1[nH]c(=O)c2ncccc2c1=O reported_value="-14.9% (inactive)"
compound="COc1ccc(CN2C(=S)SC(c3ccc(Cl)cc3)N2c2ccc(OC)cc2)cc1 (configuration not stated)" reported_value="-19.8% (inactive)"
compound="CCCc1cc(=O)oc2c3c(c4c(c12)OC(C)(C)CC4)O[C@H](C)C(C)C3=O (some centres not stated)" reported_value="-45% (inactive)"
compound=CN(C)c1ccc(N=Nc2cccc3ncccc23)cc1 reported_value="66% (inactive)"
compound="C=C1C(=C)C2C=CC1C1C3C(c4ccccn4)=NN=C(c4ccccn4)C3C21 (configuration not stated)" reported_value="62.5% (inactive)"
compound=Cc1cc(S(=O)(=O)Nc2n[nH]c(Nc3ccc(Cl)cc3)n2)c(S)cc1Cl reported_value="17.4% (inactive)"
compound="CCOC(=O)C1CC(CCl)OC1=O (configuration not stated)" reported_value="3.95% (inactive)"
compound="Cc1cc2nc3c(C(OC4OC(CO)C(O)C(O)C4O)C(O)CO)nn(-c4ccccc4)c3nc2cc1C (configuration not stated)" reported_value="0.75% (inactive)"
compound="O=[N+]([O-])c1ccc(N/N=C2/CC(c3ccccc3)C(c3ccccc3)=C2Cl)c([N+](=O)[O-])c1 (configuration not stated)" reported_value="15.7% (inactive)"
compound=Cc1onc(-c2ccccc2Cl)c1-c1nc2ccccc2c(=O)o1 reported_value="93.5% (active)"
compound=CCCCC(Nc1nncs1)Nc1nncs1 reported_value="2.6% (inactive)"
